- system name: PI3Kβ (Homo sapiens (Human))
- test: PI3K isoform TR-FRET enzymatic assay (PI3Kβ)
- Format: biochemical
- settings: 2× Km ATP, 30 minutes at 25° C.
endpoint label: pIC50
Scale: pIC50 equals -log10([C]), with [C] in mol/L.

Noted for CCCc1nc2c(-c3ncco3)cc(N3CCOCC3)cc2n1-c1ccnc2c(F)ccc(F)c12 [Example 230] : its pIC50 reads 8.15

Lab book: pIC50 of Fc1ccc2c(-n3c(CC4CC4)nc4c(-c5nnc[nH]5)cc(N5CCOCC5)cc43)ccnc2c1Cl noted as 8.05

The compound identified as CCCc1nc2c(-c3ccn[nH]3)cc(N3CCOCC3)cc2n1-c1ccnc2c(F)ccc(F)c12 [Example 389] registered its pIC50 at 7.80

pIC50 in this record for Fc1ccc(F)c2c(-n3c(C4CC4)nc4c(-c5ncco5)cc(N5CCOCC5)cc43)ccnc12 : 7.80

###

- system name: PI3Kβ (Homo sapiens (Human), UniProt P42338)
- Sequence (P42338 whole entry, canonical isoform): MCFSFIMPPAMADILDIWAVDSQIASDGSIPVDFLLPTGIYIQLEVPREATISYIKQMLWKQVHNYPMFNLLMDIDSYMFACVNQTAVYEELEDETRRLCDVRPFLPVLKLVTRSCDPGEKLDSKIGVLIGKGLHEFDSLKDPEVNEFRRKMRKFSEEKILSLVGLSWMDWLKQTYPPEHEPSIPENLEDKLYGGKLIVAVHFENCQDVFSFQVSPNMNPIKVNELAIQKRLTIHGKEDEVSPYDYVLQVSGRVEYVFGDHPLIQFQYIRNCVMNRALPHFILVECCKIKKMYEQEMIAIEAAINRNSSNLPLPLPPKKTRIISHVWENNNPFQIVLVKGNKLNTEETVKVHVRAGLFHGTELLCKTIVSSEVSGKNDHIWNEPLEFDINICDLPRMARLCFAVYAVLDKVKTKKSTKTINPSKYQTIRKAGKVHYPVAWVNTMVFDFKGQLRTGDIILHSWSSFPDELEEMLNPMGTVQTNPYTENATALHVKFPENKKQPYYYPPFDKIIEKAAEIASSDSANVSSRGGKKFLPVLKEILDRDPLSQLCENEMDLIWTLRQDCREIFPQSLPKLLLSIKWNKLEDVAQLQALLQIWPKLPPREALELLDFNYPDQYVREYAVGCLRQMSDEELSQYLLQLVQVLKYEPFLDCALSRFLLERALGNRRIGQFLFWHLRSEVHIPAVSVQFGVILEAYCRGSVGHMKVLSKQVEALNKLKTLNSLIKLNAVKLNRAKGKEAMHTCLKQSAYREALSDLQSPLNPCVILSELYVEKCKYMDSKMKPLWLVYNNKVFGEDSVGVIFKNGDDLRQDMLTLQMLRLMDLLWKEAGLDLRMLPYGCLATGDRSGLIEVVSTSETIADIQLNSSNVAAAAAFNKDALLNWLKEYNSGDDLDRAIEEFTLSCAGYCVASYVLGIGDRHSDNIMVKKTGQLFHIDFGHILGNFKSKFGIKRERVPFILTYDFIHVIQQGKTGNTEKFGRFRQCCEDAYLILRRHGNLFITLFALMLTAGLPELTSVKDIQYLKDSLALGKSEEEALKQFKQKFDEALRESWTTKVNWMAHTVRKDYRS
- Sequence (P27986 whole entry partner, canonical isoform): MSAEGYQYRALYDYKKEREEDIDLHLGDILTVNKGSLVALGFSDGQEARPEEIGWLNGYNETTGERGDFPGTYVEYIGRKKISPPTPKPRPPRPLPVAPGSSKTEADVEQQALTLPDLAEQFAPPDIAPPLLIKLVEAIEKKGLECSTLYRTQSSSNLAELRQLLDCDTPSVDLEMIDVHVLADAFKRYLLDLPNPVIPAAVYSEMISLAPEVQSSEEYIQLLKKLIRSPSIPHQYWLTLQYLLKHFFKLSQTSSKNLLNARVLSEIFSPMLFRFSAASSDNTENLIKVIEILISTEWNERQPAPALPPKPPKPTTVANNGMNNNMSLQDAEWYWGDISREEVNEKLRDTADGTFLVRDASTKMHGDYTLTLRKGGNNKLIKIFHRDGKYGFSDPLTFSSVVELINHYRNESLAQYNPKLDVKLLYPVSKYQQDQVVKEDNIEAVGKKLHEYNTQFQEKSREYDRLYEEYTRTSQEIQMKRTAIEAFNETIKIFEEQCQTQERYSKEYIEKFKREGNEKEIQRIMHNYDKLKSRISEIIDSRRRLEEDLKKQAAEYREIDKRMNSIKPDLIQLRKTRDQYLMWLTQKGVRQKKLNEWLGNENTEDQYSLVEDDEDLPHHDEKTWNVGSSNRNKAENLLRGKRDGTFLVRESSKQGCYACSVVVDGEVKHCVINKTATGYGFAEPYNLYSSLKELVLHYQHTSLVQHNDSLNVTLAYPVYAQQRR
- test: PI3K isoform TR-FRET enzymatic assay (PI3Kβ)
- settings: 2× Km ATP, 30 minutes at 25° C.
Binarize IC50 at 0.02 µM; below is yes (1), at or above is no (0).

Confirm or reject: IC50 of CCc1nc2c(-c3ncco3)cc(N3CCOCC3)cc2n1-c1ccnc2c(F)cccc12 lies strictly below 0.02 µM
yes (1)

For this molecule, is IC50 lower than 0.02 µM? CCCc1nc2c(-c3nnc[nH]3)cc(N3CCOCC3)cc2n1-c1ccnc2c(F)cccc12 (atropisomer, axis not shown) [Compound 354]
yes (1)

Confirm or reject: IC50 of CCc1nc2c(-c3cnc(Cl)[nH]3)cc(N3CCOCC3)cc2n1-c1ccnc2c(Cl)cccc12 lies strictly below 0.02 µM
yes (1)

Confirm or reject: IC50 of Cc1nnc(-c2cc(N3CCOCC3)cc3c2nc(C)n3-c2cc(N3CCNCC3)nc3ccccc23)[nH]1 lies strictly below 0.02 µM
yes (1)

Below 0.02 µM on IC50? Entry Cc1cccc2nccc(-n3c(C)nc4c(-c5nnc[nH]5)cc(N5CCOCC5)cc43)c12 (atropisomer, axis not shown) [Compound 363]
no (0)

hey, is IC50 for Cc1nc2c(-c3ccsc3)cc(N3CCOCC3)cc2n1-c1ccnc2c(Cl)cccc12 lower than 0.02 µM or not?
no (0)

Identify whether the molecule Cc1csc(-c2cc(N3CCOCC3)cc3c2nc(C)n3-c2ccnc3c(Cl)ccc(F)c23)n1 records IC50 below 0.02 µM.
yes (1)

Identify whether the molecule Fc1ccc(Cl)c2nccc(-n3c(C4CC4)nc4c(-c5nccs5)cc(N5CCOCC5)cc43)c12 records IC50 below 0.02 µM.
yes (1)

Take the molecule Cc1nc2c(-c3nnc(C(C)C)[nH]3)cc(N3CCOCC3)cc2n1-c1ccnc2c(Cl)cccc12 and say whether its IC50 is less than 0.02 µM.
no (0)

Given Cc1nc2c(-c3ccc[nH]3)cc(N3CCOCC3)cc2n1-c1ccnc2c(Cl)cccc12 , is recorded IC50 strictly lower than 0.02 µM?
no (0)

Item Cc1nc2c(-c3cnc[nH]3)cc(N3CCOCC3)cc2n1-c1ccnc2c(F)ccc(F)c12 : IC50 beneath 0.02 µM, strictly?
yes (1)

Item CCCc1nc2c(-c3nnc[nH]3)cc(N3CCOCC3)cc2n1-c1ccnc2c(F)ccc(F)c12 : IC50 beneath 0.02 µM, strictly?
yes (1)

Dear colleague, could you confirm whether IC50 of CCCc1nc2c(-c3nccs3)cc(N3CCOCC3)cc2n1-c1ccnc2c(F)ccc(F)c12 falls below 0.02 µM? Thanks.
yes (1)

Please let me know if CCc1nc2c(-c3cnc[nH]3)cc(N3CCOCC3)cc2n1-c1ccnc2c(F)cccc12 shows IC50 below 0.02 µM.
yes (1)

Given Cc1nc2c(-c3nnc[nH]3)cc(N3CCOCC3)cc2n1-c1ccnc2c(Cl)cc(F)cc12 , is recorded IC50 strictly lower than 0.02 µM?
yes (1)

Say whether its IC50 is strictly beneath 0.02 µM. Entry: CCCc1nc2c(-c3cnc(Cl)[nH]3)cc(N3CCOCC3)cc2n1-c1ccnc2c(F)cccc12
yes (1)

Given CCc1nc2c(-c3nnc[nH]3)cc(N3CCOCC3)cc2n1-c1c(-c2nnc[nH]2)cnc2ccccc12 , is recorded IC50 strictly lower than 0.02 µM?
yes (1)
